// data source = PubChem BioAssay (NCI)

tested on: NCI-H23 lung; assay: NCI-60 one-dose screen, 48 h (100 = growth as untreated, 0 = no growth, -100 = all killed); conditions: 10 µM unless noted
The panel holds about 83,000 compounds, 20% with a hit somewhere; the sample as a whole holds those more often.
Decide by growth: equal to or exceeding 40% means Yes, less means No.

# compound, assayedTarget, assignedClass
data = [
    ("CC(=O)O[C@H]1CC[C@]2(C)[C@H]3CC[C@]4(C)[C@@H](OC(C)=O)CC[C@H]4[C@@H]3[C@@H](C)[C@]2(O)C1", "NCI-H23 lung", "Yes"),
    ("C1CCC([PH+](C2CCCCC2)C2CCCCC2[PH+](C2CCCCC2)C2CCCCC2)CC1.O=C(C1[CH-]CCCC1)C1CCCC[N-]1.[Au] (centres undefined)", "NCI-H23 lung", "No"),
    ("C[n+]1c(/C=C/c2ccc(N(CCCl)CCCl)cc2)sc2ccccc21", "NCI-H23 lung", "Yes"),
    ("COc1cc(/C=C\\c2cc(OC)c(OC)c(OC)c2)cc(NS(=O)(=O)c2cccc(Cl)c2)c1OC", "NCI-H23 lung", "No"),
    ("CC1(C)N=C(N)N=C(N)N1c1ccc(CCCCc2ccc(Cl)c(S(=O)(=O)F)c2)c(Cl)c1", "NCI-H23 lung", "No"),
    ("Clc1ccc(COC(Cn2ccnc2)c2ccc(Cl)cc2Cl)cc1 (centres undefined)", "NCI-H23 lung", "Yes"),
    ("CC(C)[C@@H]1NC(=O)[C@]2(C)CSC(=N2)c2csc(n2)CNC(=O)C[C@@H](/C=C/CCS)OC1=O", "NCI-H23 lung", "No"),
    ("CCCCCCCCCCCCCCCCCC1OC[C@@H](COC(=O)O[C@@H](C(=O)O[C@H]2C[C@@]3(O)[C@@H](OC(=O)c4ccccc4)[C@@H]4[C@]5(OC(C)=O)CO[C@@H]5C[C@H](O)[C@@]4(C)C(=O)[C@H](OC(C)=O)C(=C2C)C3(C)C)[C@@H](NC(=O)c2ccccc2)c2ccccc2)O1 (some centres undefined)", "NCI-H23 lung", "Yes"),
    ("COC(=O)[C@@H](C)C[C@H](Cc1ccccc1)NC(=O)c1csc([C@@H](C[C@H](C(C)C)N(C)C(=O)[C@H](C)NC(=O)[C@H]2CCCCN2C)OC(C)=O)n1", "NCI-H23 lung", "Yes"),
]

====

system: OVCAR-4 ovarian; assay: NCI-60 one-dose screen, 48 h; conditions: 10 µM unless noted
The panel holds about 83,000 compounds, 20% with a hit somewhere; the sample as a whole holds those more often. Active and inactive are the calls of the source. Rule for the calls: active = growth percent below 10; inactive = the rest.
Possible outcomes: active, inactive

# molecule, assignedClass
records = [
    ("CC(=O)/C=C/c1ccc2c(c1)OCO2", "inactive"),
    ("CC(=O)O[C@H](C[C@H](C(C)C)N(C)C(=O)[C@@H](NC(=O)[C@H]1CCCCN1C)C(C)C)c1nc(C(=O)N[C@@H](Cc2ccccc2)C[C@H](C)C(=O)O)c(C(C)C)s1", "inactive"),
    ("COC(=O)[C@@H](C)C[C@H](Cc1ccccc1)NC(=O)c1csc([C@@H](C[C@H](C(C)C)N(C)C(=O)[C@H](C)NC(=O)[C@H]2CCCCN2C)OC(C)=O)n1", "inactive"),
    ("CC12CC=CCC1CCC1C2CCC2(C)C(c3ccc(=O)oc3)CCC12O (configuration not stated)", "active"),
    ("O=C(O)C(O)C(O)C1[O][Sb]([c]2ccc([N+](=O)[O-])cc2)[O]C1CO (configuration not stated)", "inactive"),
    ("CCOc1ccc(/C=C/[N+](=O)[O-])cc1", "inactive"),
    ("NC(=O)CNc1ccc([As]=[As]c2ccc(NCC(N)=O)cc2)cc1 (configuration not stated)", "inactive"),
    ("COc1ccc(C2=CC(c3ccc(OC)c(OC)c3)c3c(c4ccccc4oc3=O)O2)cc1OC (configuration not stated)", "inactive"),
    ("N#CC1C(C#N)C2CCC1C1C2N1c1ccccc1 (configuration not stated)", "inactive"),
    ("CC[C@H](C)[C@H](NC(=O)C12C3C4C1C1C2C3C41NC)C(=O)N(C)[C@H](C[C@@H](OC(C)=O)c1nc(C(=O)N[C@@H](Cc2ccccc2)C[C@H](C)C(=O)OC)cs1)C(C)C (some centres not stated)", "inactive"),
    ("CC[C@H](C)[C@H](NC(=O)[C@H]1CCCCN1C)C(=O)N(C)[C@H](C[C@@H](O)c1nc(C(=O)N[C@@H](Cc2ccccc2)C[C@H](C)C(=O)O)cs1)C(C)C", "inactive"),
    ("C=CCCCCCCCCC(=O)[O-].C=CCCCCCCCCC(=O)[O-].[Zn+2]", "inactive"),
]
